Tested on: BxPC-3-vector cells
test details: MTS based cell proliferation assay, BxPC-3-vector cells
Design: species or system human
test settings: BxPC-3-vector (BxPc3Vc, pMSCVneo empty vector), 4 days
measured endpoint: pIC50
Here pIC50 is given on a logarithmic scale as minus log10 of the concentration in mol/L.

## Input Entry under review: O=C1c2ccccc2C(=O)c2c1ccc1c(=O)n(-c3ccccc3)[nH]c21 [UA62001] . Reported pIC50?
## Output 5.49
